- measured on: CYP3A4 (Homo sapiens)
- Construct: from tissue
- Sequence (P08684 whole entry): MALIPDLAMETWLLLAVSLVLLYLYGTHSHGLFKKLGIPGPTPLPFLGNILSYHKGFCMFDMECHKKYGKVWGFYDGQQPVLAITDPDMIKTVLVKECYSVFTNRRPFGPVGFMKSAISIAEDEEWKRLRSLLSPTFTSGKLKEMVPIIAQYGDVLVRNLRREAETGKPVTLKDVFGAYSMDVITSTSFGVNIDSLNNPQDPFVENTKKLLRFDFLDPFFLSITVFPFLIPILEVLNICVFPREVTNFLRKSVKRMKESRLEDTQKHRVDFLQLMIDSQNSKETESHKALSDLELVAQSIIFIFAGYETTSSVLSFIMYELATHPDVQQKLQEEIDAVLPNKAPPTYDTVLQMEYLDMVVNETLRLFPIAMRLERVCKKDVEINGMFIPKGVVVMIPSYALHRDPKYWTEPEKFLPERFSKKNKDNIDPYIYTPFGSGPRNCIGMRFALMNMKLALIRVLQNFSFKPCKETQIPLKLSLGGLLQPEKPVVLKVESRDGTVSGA
- experiment notes: 5 in 1 CYP inhibition assay, CYP3A4
- Format: in vitro ADME
- cond: microsomes, probe midazolam (1′-hydroxylation), test compound 10 μM, n=2, read-out: inhibition of cytochrome P450 isoform 3A4
- Protocol: CYP450 dependent activities were determined using a marker substrate cocktail. For each reaction, enzyme activities in the presence and absence of test compound (10 μM) were measured in duplicate. A known inhibitor for each isoform, tested at a single concentration (3 μM, n=2), was included as positive control. […] Generation of metabolites from the substrate reactions was determined by LC-MS/MS.
measured property: inhibition at 10 min, 10 µM (%)

a. C[C@H](CC/C=C/C(=O)O)O[C@@H]1O[C@@H](C)[C@H](O)C[C@H]1O [ascr #7, reference compound]
b. C[C@H](CC/C=C/C(=O)OC(C)(C)C)O[C@@H]1O[C@@H](C)[C@H](O)C[C@H]1O
Req: Name the one with the greater inhibition at 10 min, 10 µM value, either a or b as given. When you have decided, please share the label of that item.
Resp: b
